As shown below, each of these compounds has a reported MIC value.
# Test system: Enterococcus faecalis
Give the value, in units of µg/mL, as a plain number.

Take a look at these entries with their results.
- COMPOUND: "Cn1cc(NC(=O)c2sccc2Cl)cc1C(=O)Nc1cc(C(=O)Nc2cccc(C(=O)NCCN3CCOCC3)c2)n(C)c1"
  TARGET_DESC: "Enterococcus faecalis"
  ASSAY_ENDPOINT: "MIC"
  ENDPOINT_VALUE: 16
- COMPOUND: "CN[C@H](CC(C)C)C(=O)N[C@H]1C(=O)N[C@@H](CC(N)=O)C(=O)N[C@H]2C(=O)N[C@H]3C(=O)N[C@H](C(=O)N[C@H](C(=O)O)c4cc(O)cc(O)c4-c4cc3ccc4O)[C@H](O)c3ccc(c(Cl)c3)Oc3cc2cc(c3O[C@@H]2O[C@H](CO)[C@@H](O)[C@H](O)[C@H]2O[C@H]2C[C@](C)(N)[C@H](O)[C@H](C)O2)Oc2ccc(cc2Cl)[C@H]1O [VANCOMYCIN]"
  TARGET_DESC: "Enterococcus faecalis"
  ASSAY_ENDPOINT: "MIC"
  ENDPOINT_VALUE: 1
- COMPOUND: "Cn1cc(NC(=O)c2cc(NC(=O)c3nc(NC(=O)c4cc5ccccc5cn4)cn3C)cn2C)cc1C(=O)NCCN1CCOCC1"
  TARGET_DESC: "Enterococcus faecalis"
  ASSAY_ENDPOINT: "MIC"
  ENDPOINT_VALUE: 1
- COMPOUND: "Cn1cc(NC(=O)c2ccc(NC(=O)c3cc(NC(=O)c4sccc4Cl)cn3C)cc2)cc1C(=O)NCCN1CCOCC1"
  TARGET_DESC: "Enterococcus faecalis"
  ASSAY_ENDPOINT: "MIC"
  ENDPOINT_VALUE: 2
- COMPOUND: "Cn1cc(NC(=O)c2cc(NC(=O)c3cc(NC(=O)c4cc5ccccc5cn4)cn3C)cn2C)cc1C(=O)NCCN1CCOCC1"
  TARGET_DESC: "Enterococcus faecalis"
  ASSAY_ENDPOINT: "MIC"
  ENDPOINT_VALUE: 0.25

Provide one value: measured MIC of Cn1cc(NC(=O)c2ccc(NC(=O)c3cc(NC(=O)c4sc5ccccc5c4Cl)cn3C)cc2)cc1C(=O)NCCN1CCOCC1
16

----------
# Tested on: Enterococcus faecalis
ASSAY_ENDPOINT: log10 of MIC (log10 of the value in µg/mL)
Recall that a logarithmic scale is used here: each number is log10 of MIC in µg/mL.

Take a look at these entries with their results.
- SMILES_NOTATION: "Cn1cc(NC(=O)c2cc(NC(=O)c3ccc(NC(=O)c4sccc4Cl)cc3)cn2C)cc1C(=O)NCCN1CCOCC1"
  log10 of MIC: 1.20
- SMILES_NOTATION: "Cc1cnc(C(=O)Nc2cc(C(=O)Nc3ccc(C(=O)Nc4cc(C(=O)NCCN5CCOCC5)n(C)c4)cc3)n(C)c2)cn1"
  log10 of MIC: 0.30
- SMILES_NOTATION: "Cn1cc(NC(=O)c2cc(NC(=O)c3cc(NC(=O)c4cc5ccccc5cn4)nn3C)cn2C)cc1C(=O)NCCN1CCOCC1"
  log10 of MIC: 0.90
- SMILES_NOTATION: "CC(C)n1cc(NC(=O)c2cc(NC(=O)c3cc(NC(=O)c4sccc4Cl)cn3C)cn2C)cc1C(=O)NCCN1CCOCC1"
  log10 of MIC: 0.00

Here is the next item to consider.
Specify the recorded log10 of MIC for CC(C)n1cc(NC(=O)c2sccc2Cl)cc1C(=O)Nc1cc(C(=O)Nc2cc(C(=O)NCCN3CCOCC3)n(C)c2)n(C)c1 , system: Enterococcus faecalis.
0.60
